Hello, the source for this data is paper PMC12416549, in case you need it.

Biological target: T1, TNFR1 (Homo sapiens, UniProt P19438)
T1 chain: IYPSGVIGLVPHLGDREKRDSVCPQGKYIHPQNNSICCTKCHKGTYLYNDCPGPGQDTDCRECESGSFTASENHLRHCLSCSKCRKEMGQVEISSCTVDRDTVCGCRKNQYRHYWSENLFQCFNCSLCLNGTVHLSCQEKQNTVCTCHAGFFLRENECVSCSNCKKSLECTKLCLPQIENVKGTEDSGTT
Test: yeast display SC50
assay.endpoint: apparent Kd (screen) (pM)
Give just the number in pM; leave the unit off.

binder	result.units	apparent Kd (screen)
A87F (designed binder) MTLQELLREEALRRAEAEAFRYALELLAEKFPEQKEYLLDLAEEIESQIRSLSGVDVEDVRKFLDKEWAWVKELLAEHPAELAEVEFARAARLAELRAEVEAKVAA	pM	790
L6I (designed binder) MTLQEILREEALRRAEAEAFRYALELLAEKFPEQKEYLLDLAEEIESQIRSLSGVDVEDVRKFLDKEWAWVKELLAEHPAELAEVEAARAARLAELRAEVEAKVAA	pM	539
E81L (designed binder) MTLQELLREEALRRAEAEAFRYALELLAEKFPEQKEYLLDLAEEIESQIRSLSGVDVEDVRKFLDKEWAWVKELLAEHPALLAEVEAARAARLAELRAEVEAKVAA	pM	653

Hello, please tell me recorded apparent Kd (screen) for this one: V55N (designed binder) MTLQELLREEALRRAEAEAFRYALELLAEKFPEQKEYLLDLAEEIESQIRSLSGNDVEDVRKFLDKEWAWVKELLAEHPAELAEVEAARAARLAELRAEVEAKVAA
956

Identify apparent Kd (screen) associated with the binder L74P (designed binder) MTLQELLREEALRRAEAEAFRYALELLAEKFPEQKEYLLDLAEEIESQIRSLSGVDVEDVRKFLDKEWAWVKEPLAEHPAELAEVEAARAARLAELRAEVEAKVAA
13800

Quote apparent Kd (screen) reported for E86F (designed binder) MTLQELLREEALRRAEAEAFRYALELLAEKFPEQKEYLLDLAEEIESQIRSLSGVDVEDVRKFLDKEWAWVKELLAEHPAELAEVFAARAARLAELRAEVEAKVAA please.
2250

Please list apparent Kd (screen) recorded for the binder L3T (designed binder) MTTQELLREEALRRAEAEAFRYALELLAEKFPEQKEYLLDLAEEIESQIRSLSGVDVEDVRKFLDKEWAWVKELLAEHPAELAEVEAARAARLAELRAEVEAKVAA
4830

Assign apparent Kd (screen) to the following record: H78W (designed binder) MTLQELLREEALRRAEAEAFRYALELLAEKFPEQKEYLLDLAEEIESQIRSLSGVDVEDVRKFLDKEWAWVKELLAEWPAELAEVEAARAARLAELRAEVEAKVAA
446
